Tested on: E. coli ATCC 25922 MCR-1
Assay type: cell-based
MEASUREMENT CONDITIONS: Ec ATCC 25922 MCR-1; broth microdilution (CLSI), MHB, 16 h 37 °C, three technical replicates
PARAMETER MEASURED: MIC
Number first, unit second.

Task item: Find MIC (E. coli ATCC 25922 MCR-1) for the entry CCC(C)CCC(=O)N[C@H](CC(N)=O)C(=O)N[C@H](Cc1ccc(O)cc1)C(=O)N[C@H](Cc1c[nH]c2ccccc12)C(=O)N[C@H](CCCN)C(=O)N[C@@H](CCCN)C(=O)NCC(=O)N[C@H](CCCN)C(=O)N[C@@H](Cc1c[nH]c2ccccc12)C(=O)N[C@@H]1C(=O)N[C@@H]([C@@H](C)CC)C(=O)NCC(=O)N[C@@H](CO)C(=O)N[C@@H]1C (stereo partly shown)
Reply: 8 µg/mL

====

Test system: E. coli ATCC 25922
Type: cell-based
MEASUREMENT CONDITIONS: ATCC 25922, 16 h
Positions of bridges follow the written chain, without caps; N, C: chain ends. Non-standard residues stand in square brackets, D forms with d. Residues, ends and D or L forms follow the SMILES beside them. ξ: configuration not given here. *: point of attachment. Octanoyl(7-Me) = CC(C)CCCCCC(=O)*; Hexanoyl(4ξ-Me) = CCC(C)CCC(=O)*; dOrn = NCCC[C@@H](N)C(=O)O; Orn = NCCC[C@H](N)C(=O)O; Dap = NC[C@H](N)C(=O)O
PARAMETER MEASURED: MIC (mg/L)
Express your answer in mg/L, writing the number without its unit.

Check out these entries, answers already filled in.
MOLECULE	TARGET OR SYSTEM	MIC / mg/L
CC[C@H](C)[C@@H]1NC(=O)[C@@H](NC(=O)[C@H](Cc2c[nH]c3ccccc23)NC(=O)[C@@H](CCCN)NC(=O)CNC(=O)[C@H](CCCN)NC(=O)[C@@H](CCCN)NC(=O)[C@@H](Cc2c[nH]c3ccccc23)NC(=O)[C@@H](Cc2ccc(O)cc2)NC(=O)[C@@H](CO)NC(=O)CCCCCC(C)C)CNC(=O)CNC(=O)CNC(=O)[C@H](CC(N)=O)NC1=O [Dap9-Lat (6), Dap9-laterocidamide] ({Octanoyl(7-Me)}-[dS][dY][dW][dOrn][Orn]G[dOrn]W[Dap]INGG; lactam 9-C)	E. coli ATCC 25922	1
CC[C@H](C)[C@@H]1NC(=O)[C@@H](NC(=O)[C@H](Cc2c[nH]c3ccccc23)NC(=O)[C@@H](CCCN)NC(=O)CNC(=O)[C@H](CCCN)NC(=O)[C@@H](CCCN)NC(=O)[C@@H](Cc2c[nH]c3ccccc23)NC(=O)[C@@H](Cc2ccc(O)cc2)NC(=O)[C@@H](CO)NC(=O)CCCCCC(C)C)COC(=O)CNC(=O)CNC(=O)[C@H](CC(N)=O)NC1=O [Ser9-Lat (4), Ser9-Laterocidine] ({Octanoyl(7-Me)}-[dS][dY][dW][dOrn][Orn]G[dOrn]WSINGG; ester 9-C)	E. coli ATCC 25922	0.5
CC[C@H](C)[C@@H]1NC(=O)[C@@H](NC(=O)[C@H](Cc2c[nH]c3ccccc23)NC(=O)[C@@H](CCCN)NC(=O)CNC(=O)[C@H](CCCN)NC(=O)[C@@H](CCCN)NC(=O)[C@@H](Cc2c[nH]c3ccccc23)NC(=O)[C@@H](Cc2ccc(O)cc2)NC(=O)[C@@H](CO)NC(=O)CCCCCC(C)C)[C@@H](C)OC(=O)CNC(=O)CNC(=O)[C@H](CC(N)=O)NC1=O [Lat (2), laterocidine]	E. coli ATCC 25922	1
CCC(C)CCC(=O)N[C@H](CC(N)=O)C(=O)N[C@H](Cc1ccc(O)cc1)C(=O)N[C@H](Cc1c[nH]c2ccccc12)C(=O)N[C@H](CCCN)C(=O)N[C@@H](CCCN)C(=O)NCC(=O)N[C@H](CCCN)C(=O)N[C@@H](Cc1c[nH]c2ccccc12)C(=O)N[C@H]1COC(=O)[C@H](CO)NC(=O)CNC(=O)[C@H]([C@@H](C)CC)NC1=O (some centres unmarked) [Ser9-Brev (3), Ser9-Brevicidine] ({Hexanoyl(4ξ-Me)}-[dN][dY][dW][dOrn][Orn]G[dOrn]WSIGS; ester 9-C)	E. coli ATCC 25922	4

Please turn your attention to the following entry.
Task item: Consider the molecule shown here: CC[C@@H](C)[C@H]1NC(=O)[C@H](NC(=O)[C@@H](Cc2c[nH]c3ccccc23)NC(=O)[C@H](CCCN)NC(=O)CNC(=O)[C@@H](CCCN)NC(=O)[C@H](CCCN)NC(=O)[C@H](Cc2c[nH]c3ccccc23)NC(=O)[C@H](Cc2ccc(O)cc2)NC(=O)[C@H](CO)NC(=O)CCCCCC(C)C)[C@H](C)OC(=O)CNC(=O)CNC(=O)[C@@H](CC(N)=O)NC1=O (single isomer, unassigned) [ent-Lat (ent-2), ent-laterocidine] What is its recorded MIC?
Reply: 8

====

System: A. baumannii ATCC 17961
Type: cell-based
MEASUREMENT CONDITIONS: ATCC 17961, 16 h
Protocol: Minimum inhibitory concentrations (MICs) were determined by broth microdilution according to CLSI guidelines in triplicate. […]
Positions of bridges follow the written chain, without caps; N, C: chain ends. Non-standard residues stand in square brackets, D forms with d. Residues, ends and D or L forms follow the SMILES beside them. ξ: configuration not given here. *: point of attachment. Octanoyl(7-Me) = CC(C)CCCCCC(=O)*; Hexanoyl(4ξ-Me) = CCC(C)CCC(=O)*; dOrn = NCCC[C@@H](N)C(=O)O; Orn = NCCC[C@H](N)C(=O)O
PARAMETER MEASURED: MIC

Check out these entries, answers already filled in.
COMPOUND	MIC
CCC(C)CCC(=O)N[C@H](CC(N)=O)C(=O)N[C@H](Cc1ccc(O)cc1)C(=O)N[C@H](Cc1c[nH]c2ccccc12)C(=O)N[C@H](CCCN)C(=O)N[C@@H](CCCN)C(=O)NCC(=O)N[C@H](CCCN)C(=O)N[C@@H](Cc1c[nH]c2ccccc12)C(=O)N[C@@H]1C(=O)N[C@@H]([C@@H](C)CC)C(=O)NCC(=O)N[C@@H](CO)C(=O)N[C@@H]1C (stereo partly drawn) [MeDap9-Brev (7)]	8 to 16 µg/mL
CC[C@H](C)[C@@H]1NC(=O)[C@@H](NC(=O)[C@H](Cc2c[nH]c3ccccc23)NC(=O)[C@@H](CCCN)NC(=O)CNC(=O)[C@H](CCCN)NC(=O)[C@@H](CCCN)NC(=O)[C@@H](Cc2c[nH]c3ccccc23)NC(=O)[C@@H](Cc2ccc(O)cc2)NC(=O)[C@@H](CO)NC(=O)CCCCCC(C)C)COC(=O)CNC(=O)CNC(=O)[C@H](CC(N)=O)NC1=O [Ser9-Lat (4), Ser9-Laterocidine] ({Octanoyl(7-Me)}-[dS][dY][dW][dOrn][Orn]G[dOrn]WSINGG; ester 9-C)	4 µg/mL

Task item: Consider the compound shown here: CCC(C)CCC(=O)N[C@H](CC(N)=O)C(=O)N[C@H](Cc1ccc(O)cc1)C(=O)N[C@H](Cc1c[nH]c2ccccc12)C(=O)N[C@H](CCCN)C(=O)N[C@@H](CCCN)C(=O)NCC(=O)N[C@H](CCCN)C(=O)N[C@@H](Cc1c[nH]c2ccccc12)C(=O)N[C@H]1COC(=O)[C@H](CO)NC(=O)CNC(=O)[C@H]([C@@H](C)CC)NC1=O (stereo partly drawn) [Ser9-Brev (3), Ser9-Brevicidine] ({Hexanoyl(4ξ-Me)}-[dN][dY][dW][dOrn][Orn]G[dOrn]WSIGS; ester 9-C) What is its recorded MIC?
Reply: 0.5 to 1 µg/mL

====

System: A. baumannii 2018-006
Assay type: cell-based
MEASUREMENT CONDITIONS: 2018-006, 16 h
Positions of bridges follow the written chain, without caps; N, C: chain ends. Non-standard residues stand in square brackets, D forms with d. Residues, ends and D or L forms follow the SMILES beside them. *: point of attachment. Octanoyl(7-Me) = CC(C)CCCCCC(=O)*; dOrn = NCCC[C@@H](N)C(=O)O; Orn = NCCC[C@H](N)C(=O)O; Dap = NC[C@H](N)C(=O)O
PARAMETER MEASURED: MIC
Number first, unit second.

COMPOUND	MIC
CC[C@@H](C)[C@H]1NC(=O)[C@H](NC(=O)[C@@H](Cc2c[nH]c3ccccc23)NC(=O)[C@H](CCCN)NC(=O)CNC(=O)[C@@H](CCCN)NC(=O)[C@H](CCCN)NC(=O)[C@H](Cc2c[nH]c3ccccc23)NC(=O)[C@H](Cc2ccc(O)cc2)NC(=O)[C@H](CO)NC(=O)CCCCCC(C)C)[C@H](C)OC(=O)CNC(=O)CNC(=O)[C@@H](CC(N)=O)NC1=O (single isomer, unassigned) [ent-Lat (ent-2), ent-laterocidine]	4 µg/mL
CC[C@H](C)[C@@H]1NC(=O)[C@@H](NC(=O)[C@H](Cc2c[nH]c3ccccc23)NC(=O)[C@@H](CCCN)NC(=O)CNC(=O)[C@H](CCCN)NC(=O)[C@@H](CCCN)NC(=O)[C@@H](Cc2c[nH]c3ccccc23)NC(=O)[C@@H](Cc2ccc(O)cc2)NC(=O)[C@@H](CO)NC(=O)CCCCCC(C)C)[C@@H](C)NC(=O)CNC(=O)CNC(=O)[C@H](CC(N)=O)NC1=O [MeDap9-Lat (8), MeDap9-laterocidine]	4 µg/mL

Task item: Consider the compound shown here: CC[C@H](C)[C@@H]1NC(=O)[C@@H](NC(=O)[C@H](Cc2c[nH]c3ccccc23)NC(=O)[C@@H](CCCN)NC(=O)CNC(=O)[C@H](CCCN)NC(=O)[C@@H](CCCN)NC(=O)[C@@H](Cc2c[nH]c3ccccc23)NC(=O)[C@@H](Cc2ccc(O)cc2)NC(=O)[C@@H](CO)NC(=O)CCCCCC(C)C)CNC(=O)CNC(=O)CNC(=O)[C@H](CC(N)=O)NC1=O [Dap9-Lat (6), Dap9-laterocidamide] ({Octanoyl(7-Me)}-[dS][dY][dW][dOrn][Orn]G[dOrn]W[Dap]INGG; lactam 9-C) What is its recorded MIC?
Reply: 4 µg/mL
